test system: adult F. hepatica flukes (Italian strain); test: Ex vivo dose response motility assay on adult liver flukes (Italian strain); assay type: cell-based, Fasciola hepatica; settings: 40 µM, 48 h; adult flukes Italian strain; score 1 to 6
I'd appreciate it if you could supply Average motility of 3 parasites treated with 40 µM, 48 hours values for the items below.

CC1(C)CC[C@]2(C(=O)O)CC[C@]3(C)C(=CC[C@@H]4[C@@]5(C)CC[C@@H]6OC(C)(C)OC[C@@]6(C)[C@@H]5CC[C@]43C)[C@@H]2C1 [MC014]	4.00 (4.0;4.0)
CC1(C)CC[C@]2(NC(=O)N3CCCC3)CC[C@]3(C)C(=CCC4[C@@]5(C)CC[C@H](O)[C@@](C)(CO)C5CC[C@]43C)C2C1 (stereo partly drawn) [MC055]	3.66 (3.0;4.3)

Reported Average motility of 3 parasites treated with 40 µM, 48 hours ( CC1(C)CC[C@]2(NC(=O)N3CCOCC3)CC[C@]3(C)C(=CCC4[C@@]5(C)CC[C@@H]6OC(C)(C)OC[C@@]6(C)C5CC[C@]43C)C2C1 (stereo partly drawn) [MC042] ) = 5.66 (5.0;6.3)

----------
test system: adult F. hepatica flukes (Italian strain); assay: Ex vivo dose response motility assay on adult liver flukes (Italian strain); type: cell-based, Fasciola hepatica; conditions: 40 µM, 24 h; adult flukes Italian strain; score 1 to 6
Exercise: state measured Average motility of 3 parasites treated with 40 µM, 24 hours for each of the molecules provided.

Here are 4 molecules together with their reported answers.
CC1(C)CC[C@]2(NC(=O)N3CCCC3)CC[C@]3(C)C(=CCC4[C@@]5(C)CC[C@H](O)[C@@](C)(CO)C5CC[C@]43C)C2C1 (stereo partly drawn)	3.00 (3.0;3.0)
CC1(C)CC[C@]2(C(=O)O)CC[C@]3(C)C(=CC[C@@H]4[C@@]5(C)CC[C@@H]6OC(C)(C)OC[C@@]6(C)[C@@H]5CC[C@]43C)[C@@H]2C1	3.33 (2.6;3.9)
CC1(C)CC[C@]2(NC(=O)N3CCNCC3)CC[C@]3(C)C(=CCC4[C@@]5(C)CCC6OC(C)(C)OC[C@@]6(C)C5CC[C@]43C)C2C1 (stereo partly drawn)	2.33 (1.6;2.9)
CN1CCN(C(=O)N[C@]23CCC(C)(C)CC2C2=CCC4[C@@]5(C)CC[C@@H]6OC(C)(C)OC[C@@]6(C)C5CC[C@@]4(C)[C@]2(C)CC3)CC1 (stereo partly drawn)	3.00 (3.0;3.0)

Could you tell me Average motility of 3 parasites treated with 40 µM, 24 hours for each of these molecules? They are listed below.
1. CC1(C)CC[C@]2(NC(=O)N3CCOCC3)CC[C@]3(C)C(=CCC4[C@@]5(C)CC[C@@H]6OC(C)(C)OC[C@@]6(C)C5CC[C@]43C)C2C1 (stereo partly drawn)
2. CSc1nc2cc(Cl)c(Oc3cccc(Cl)c3Cl)cc2[nH]1 [Triclabendazole, reference compound]

A)
5.33 (4.6;5.9)
2.33 (1.6; 2.9)

----------
test system: adult F. hepatica flukes (Italian strain); experiment: Ex vivo dose response motility assay on adult liver flukes (Italian strain); format: cell-based, Fasciola hepatica; details: 13.3 µM, 72 h; adult flukes Italian strain; score 1 to 6
readout_kind: Average motility of 3 parasites treated with 13.3 µM, 72 hours

Answered examples (2):
CN1CCN(C(=O)N[C@]23CCC(C)(C)CC2C2=CCC4[C@@]5(C)CC[C@@H]6OC(C)(C)OC[C@@]6(C)C5CC[C@@]4(C)[C@]2(C)CC3)CC1 (stereo partly drawn)	5.00 (5.0; 5.0)
CSc1nc2cc(Cl)c(Oc3cccc(Cl)c3Cl)cc2[nH]1 [Triclabendazole, reference compound]	2.00 (0.8; 3.1)

Item: CC1(C)CC[C@]2(C(=O)O)CC[C@]3(C)C(=CC[C@@H]4[C@@]5(C)CC[C@@H]6OC(C)(C)OC[C@@]6(C)[C@@H]5CC[C@]43C)[C@@H]2C1 | Average motility of 3 parasites treated with 13.3 µM, 72 hours: 3.33 (2.6;3.9)
